Recorded residual activity values for a group of molecules are listed next.
assay target: CDK6 CCND3 (human) (UniProt P30281+Q00534)
Sequence (P30281 whole entry, looked up): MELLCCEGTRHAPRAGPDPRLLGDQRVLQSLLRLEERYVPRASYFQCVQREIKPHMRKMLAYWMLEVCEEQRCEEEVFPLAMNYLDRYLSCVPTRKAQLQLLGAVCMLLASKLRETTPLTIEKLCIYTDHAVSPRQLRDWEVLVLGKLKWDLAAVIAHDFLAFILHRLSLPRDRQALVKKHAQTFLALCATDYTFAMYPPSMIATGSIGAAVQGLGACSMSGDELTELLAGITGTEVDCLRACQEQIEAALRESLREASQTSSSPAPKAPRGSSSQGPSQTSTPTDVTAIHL
Sequence (Q00534 whole entry, looked up): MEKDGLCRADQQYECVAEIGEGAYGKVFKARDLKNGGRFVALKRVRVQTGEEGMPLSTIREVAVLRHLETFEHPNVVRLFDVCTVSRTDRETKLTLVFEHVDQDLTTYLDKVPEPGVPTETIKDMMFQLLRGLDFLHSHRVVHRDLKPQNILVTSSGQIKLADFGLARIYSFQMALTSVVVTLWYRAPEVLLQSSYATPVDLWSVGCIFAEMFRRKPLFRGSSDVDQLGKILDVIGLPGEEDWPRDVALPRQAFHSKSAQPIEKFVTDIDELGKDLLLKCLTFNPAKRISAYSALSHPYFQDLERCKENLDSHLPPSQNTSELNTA
measurement protocol: radiometric filter-binding kinase assay, Kinase HotSpot
measurement setup: compound 0.5 µM; ATP 10 µM
Answer with the value and then the unit.

Solved entries (count: 10):
| chemical structure | assay target | residual activity |
| --- | --- | --- |
| Nc1ncnc2c1c(-c1ccc(Oc3ccccc3)cc1)cn2C1CCCC1 | CDK6 CCND3 (human) (UniProt P30281+Q00534) | 97.2% |
| COc1ccc(COc2ccc(Cc3cnc(N)nc3N)cc2OC)cc1 | CDK6 CCND3 (human) (UniProt P30281+Q00534) | 94.5% |
| CCN(CC)C(=O)c1ccc(Nc2nc(OCC3CCCCC3)c3nc[nH]c3n2)cc1 | CDK6 CCND3 (human) (UniProt P30281+Q00534) | 47.2% |
| N#CC(C#N)=C(N)/C(C#N)=C/c1ccc(O)cc1 | CDK6 CCND3 (human) (UniProt P30281+Q00534) | 100% |
| CCN(CC)CCNC(=O)c1c(C)[nH]c(/C=C2\C(=O)Nc3ccc(Cl)cc32)c1C | CDK6 CCND3 (human) (UniProt P30281+Q00534) | 41.6% |
| CNc1cc2c(Nc3cccc(Br)c3)ncnc2cn1 | CDK6 CCND3 (human) (UniProt P30281+Q00534) | 90.8% |
| CNC(=O)c1cc(Oc2ccc(NC(=O)Nc3ccc(Cl)c(C(F)(F)F)c3)cc2)ccn1 | CDK6 CCND3 (human) (UniProt P30281+Q00534) | 104% |
| CC#CC(=O)Nc1cc2c(Nc3ccc(F)c(Cl)c3)ncnc2cn1 | CDK6 CCND3 (human) (UniProt P30281+Q00534) | 103% |
| CCOC(=O)c1c(C)[nH]c(/C=C2\C(=O)Nc3ccccc32)c1C | CDK6 CCND3 (human) (UniProt P30281+Q00534) | 84.7% |
| Cc1nc(Nc2ncc(C(=O)Nc3c(C)cccc3Cl)s2)cc(N2CCN(CCO)CC2)n1 | CDK6 CCND3 (human) (UniProt P30281+Q00534) | 103% |

-- ask Field request: residual activity | item: O=S(=O)(c1cccc2cnccc12)N1CCCNCC1
-- reply 95.8%

-- ask Returns the measured residual activity for the input molecule. Input: COc1cc2ncnc(Nc3cccc(Cl)c3)c2cc1OC
-- reply 90.1%

-- ask Would you mind telling me what residual activity value was observed for N#C/C(=C(/N)Sc1ccc(N)cc1)c1ccccc1C(F)(F)F ?
-- reply 103%

-- ask Field request: residual activity | item: CCN(CC)CCNC(=O)c1c(C)[nH]c(/C=C2\C(=O)Nc3ccc(F)cc32)c1C
-- reply 59.7%

-- ask Find the recorded residual activity belonging to Cc1ccc(S(=O)(=O)/C=C/C#N)cc1 and report it.
-- reply 104%

-- ask Name the recorded residual activity for CC(=O)c1ccc(N2CCOCC2)cc1O .
-- reply 97.4%

-- ask Any idea what residual activity was measured for CC[n+]1c(/C=C/N(C)c2ccccc2)n(-c2ccccc2)c2ccc(-c3nc4ccccc4s3)cc21 ?
-- reply 92.2%

-- ask Entry under review: CC(C)N(CCC(=O)c1ccc2ccccc2c1)Cc1ccccc1 . Reported residual activity?
-- reply 102%

-- ask # get_value(readout='residual activity', item= O=c1cc(N2CCOCC2)oc2c1ccc1ccccc12 )
-- reply 95.1%

-- ask Param item = O=C(Nc1cccc(Nc2nccc(Nc3cccc(C(F)(F)F)c3)n2)c1)C1CC1 ; retrieve measured residual activity.
-- reply 98.5%

-- ask What residual activity value was documented for this molecule, c1ccc(-c2n[nH]cc2-c2ccnc3ccccc23)nc1 ?
-- reply 98.2%

-- ask Query (molecule): Nc1ncnc2[nH]nc(Nc3ccc(F)cc3)c12 ; field requested: residual activity
-- reply 99.6%

====

assay target: NTRK2 (human) (UniProt Q16620)
Sequence (Q16620 whole entry, looked up): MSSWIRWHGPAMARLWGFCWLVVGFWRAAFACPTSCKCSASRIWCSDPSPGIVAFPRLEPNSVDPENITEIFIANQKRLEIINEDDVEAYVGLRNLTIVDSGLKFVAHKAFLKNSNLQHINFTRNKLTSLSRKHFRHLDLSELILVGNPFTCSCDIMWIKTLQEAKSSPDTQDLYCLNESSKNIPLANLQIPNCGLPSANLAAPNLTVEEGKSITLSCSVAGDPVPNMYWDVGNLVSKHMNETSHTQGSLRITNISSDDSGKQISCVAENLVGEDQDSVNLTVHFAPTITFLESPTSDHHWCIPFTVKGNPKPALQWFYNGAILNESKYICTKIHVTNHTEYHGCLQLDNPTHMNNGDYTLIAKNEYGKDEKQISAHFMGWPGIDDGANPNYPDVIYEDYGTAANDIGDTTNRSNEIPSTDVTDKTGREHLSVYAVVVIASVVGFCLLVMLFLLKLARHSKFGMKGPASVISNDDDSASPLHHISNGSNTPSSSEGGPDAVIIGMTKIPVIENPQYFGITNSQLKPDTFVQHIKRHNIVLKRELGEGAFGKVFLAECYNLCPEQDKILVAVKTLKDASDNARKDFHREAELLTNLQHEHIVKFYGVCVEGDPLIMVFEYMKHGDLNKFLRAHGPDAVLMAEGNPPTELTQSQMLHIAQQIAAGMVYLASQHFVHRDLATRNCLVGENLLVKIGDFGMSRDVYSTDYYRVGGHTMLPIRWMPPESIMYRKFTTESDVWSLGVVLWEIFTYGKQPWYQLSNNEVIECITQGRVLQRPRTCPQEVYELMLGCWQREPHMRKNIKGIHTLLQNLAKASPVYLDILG
measurement protocol: radiometric filter-binding kinase assay, Kinase HotSpot
measurement setup: compound 0.5 µM; ATP 10 µM
residual activity strictly less than 70% = Y. Otherwise N.

Would you please look over these solved cases?
| compound | assay target | class label |
| --- | --- | --- |
| O=S(=O)(c1cccc2cnccc12)N1CCCNCC1 | NTRK2 (human) (UniProt Q16620) | N |
| COc1cc2ncnc(Nc3cccc(Cl)c3)c2cc1OC | NTRK2 (human) (UniProt Q16620) | N |
| CO[C@H]1CC2CC[C@@H](C)[C@@](O)(O2)C(=O)C(=O)N2CCCC[C@H]2C(=O)OC([C@H](C)C[C@@H]2CC[C@@H](O)[C@H](OC)C2)CC(=O)[C@H](C)/C=C(\C)[C@@H](O)[C@@H](OC)C(=O)[C@H](C)C[C@H](C)/C=C/C=C/C=C/1C (stereo partly specified) | NTRK2 (human) (UniProt Q16620) | N |
| Cc1[nH]c(/C=C2\C(=O)Nc3ccc(S(=O)(=O)N(C)c4cccc(Cl)c4)cc32)c(C)c1C(=O)N1CCN(C)CC1 | NTRK2 (human) (UniProt Q16620) | Y |

Please find the next compound below.
-- ask Confirm or reject: residual activity of O=C1Nc2ccc(Cl)cc2/C1=C/c1cc(Cl)c(O)c(Cl)c1 lies strictly below 70%
-- reply Y

====

Items are presented alongside their recorded residual activity.
assay target: STK16 (human)
measurement protocol: radiometric filter-binding kinase assay, Kinase HotSpot
measurement setup: compound 0.5 µM; ATP 10 µM
Enter your answer as a number in %; do not include the unit.

Solved entries (count: 5):
| chemical structure | residual activity (%) |
| --- | --- |
| O=C1NC(=O)/C(=C/c2ccc3c(c2)OC(F)(F)O3)S1 | 91 |
| Cc1ccc(NC2=CC(=O)c3sc(C)nc3C2=O)cc1 | 91.7 |
| CC(=O)c1ccc(N2CCOCC2)cc1O | 110 |
| Nc1ccc2ncnc(NCCc3ccc(Oc4ccccc4)cc3)c2c1 | 94.7 |
| Cc1ccc(S(=O)(=O)/C=C/C#N)cc1 | 88.3 |

-- ask Please give the measured residual activity for this compound: Nc1cccc(-c2cc3c(Oc4cccc(O)c4)ncnc3[nH]2)c1
-- reply 70.4

-- ask Reported residual activity, compound Oc1cccc(-c2nc(N3CCOCC3)c3oc4ncccc4c3n2)c1 : ____
-- reply 91.7

-- ask residual activity for CCOC(=O)c1c(C)[nH]c(/C=C2\C(=O)Nc3ccccc32)c1C ?
-- reply 88.3

-- ask Param item = CNc1cc2c(Nc3cccc(Br)c3)ncnc2cn1 ; retrieve measured residual activity.
-- reply 98.6

-- ask Item c1ccc(-c2n[nH]cc2-c2ccnc3ccccc23)nc1 has what recorded residual activity?
-- reply 100

-- ask Would you mind telling me what residual activity value was observed for CCN(CC)CCNC(=O)c1c(C)[nH]c(/C=C2\C(=O)Nc3ccc(F)cc32)c1C ?
-- reply 55.7

====

assay target: PRKX (human) (UniProt P51817)
Sequence (P51817 whole entry, looked up): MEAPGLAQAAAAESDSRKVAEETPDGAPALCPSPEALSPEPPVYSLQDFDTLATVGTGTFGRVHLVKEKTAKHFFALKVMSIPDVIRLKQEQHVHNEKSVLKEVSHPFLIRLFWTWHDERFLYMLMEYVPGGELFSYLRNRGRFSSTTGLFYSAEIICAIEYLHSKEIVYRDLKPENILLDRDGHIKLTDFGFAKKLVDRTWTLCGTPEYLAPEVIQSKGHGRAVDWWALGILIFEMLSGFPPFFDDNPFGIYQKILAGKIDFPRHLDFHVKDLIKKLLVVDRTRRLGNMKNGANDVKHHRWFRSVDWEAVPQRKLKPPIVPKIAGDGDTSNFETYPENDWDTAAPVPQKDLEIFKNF
measurement protocol: radiometric filter-binding kinase assay, Kinase HotSpot
measurement setup: compound 0.5 µM; ATP 10 µM
measurement name: residual activity (%)
// return numeric value only (unit: %, not printed)

Before answering, review these 7 worked examples.
| chemical structure | assay target | residual activity (%) |
| --- | --- | --- |
| CCN(CC)CCNC(=O)c1c(C)[nH]c(/C=C2\C(=O)Nc3ccc(F)cc32)c1C | PRKX (human) (UniProt P51817) | 105 |
| N#C/C(=C(/N)Sc1ccc(N)cc1)c1ccccc1C(F)(F)F | PRKX (human) (UniProt P51817) | 98.9 |
| Cc1ccc(S(=O)(=O)/C=C/C#N)cc1 | PRKX (human) (UniProt P51817) | 102 |
| COc1ccc(COc2ccc(Cc3cnc(N)nc3N)cc2OC)cc1 | PRKX (human) (UniProt P51817) | 105 |
| O=S(=O)(c1cccc2cnccc12)N1CCCNCC1 | PRKX (human) (UniProt P51817) | 23.5 |
| Cc1[nH]c(/C=C2\C(=O)Nc3ccc(S(=O)(=O)N(C)c4cccc(Cl)c4)cc32)c(C)c1C(=O)N1CCN(C)CC1 | PRKX (human) (UniProt P51817) | 104 |
| O=C1NC(=O)/C(=C/c2ccc3c(c2)OC(F)(F)O3)S1 | PRKX (human) (UniProt P51817) | 101 |

-- ask For the compound c1ccc(-c2n[nH]cc2-c2ccnc3ccccc23)nc1 , what residual activity is on record?
-- reply 102

====

assay target: FGFR1 (human) (UniProt P11362)
Sequence (P11362 whole entry, looked up): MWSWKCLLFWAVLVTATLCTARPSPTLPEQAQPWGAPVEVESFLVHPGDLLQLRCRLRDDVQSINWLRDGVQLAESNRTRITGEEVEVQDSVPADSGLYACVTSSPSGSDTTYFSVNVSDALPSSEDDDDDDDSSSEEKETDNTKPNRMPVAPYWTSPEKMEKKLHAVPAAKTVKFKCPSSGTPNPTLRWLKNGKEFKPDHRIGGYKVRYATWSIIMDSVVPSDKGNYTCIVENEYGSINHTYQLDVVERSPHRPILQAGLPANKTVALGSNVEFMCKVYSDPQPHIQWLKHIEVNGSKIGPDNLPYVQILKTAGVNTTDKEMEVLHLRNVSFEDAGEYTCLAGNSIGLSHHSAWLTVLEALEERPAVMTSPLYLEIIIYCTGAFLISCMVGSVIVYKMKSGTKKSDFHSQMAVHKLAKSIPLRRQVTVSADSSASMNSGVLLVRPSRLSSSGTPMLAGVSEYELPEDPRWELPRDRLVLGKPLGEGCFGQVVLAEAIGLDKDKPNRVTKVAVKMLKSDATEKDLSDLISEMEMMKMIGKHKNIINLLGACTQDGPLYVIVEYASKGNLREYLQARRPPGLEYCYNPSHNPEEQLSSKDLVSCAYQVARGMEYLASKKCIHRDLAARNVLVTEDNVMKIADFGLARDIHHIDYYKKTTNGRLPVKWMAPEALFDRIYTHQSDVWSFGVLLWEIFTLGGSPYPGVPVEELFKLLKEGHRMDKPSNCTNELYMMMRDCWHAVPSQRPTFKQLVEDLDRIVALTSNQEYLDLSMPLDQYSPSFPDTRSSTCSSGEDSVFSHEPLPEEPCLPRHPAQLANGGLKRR
measurement protocol: radiometric filter-binding kinase assay, Kinase HotSpot
measurement setup: compound 0.5 µM; ATP 10 µM
measurement name: residual activity (%)
Give the value in % but do not write % after it.

Examples from the recorded data:
| chemical structure | unit abbrev | residual activity |
| --- | --- | --- |
| CC(=O)c1ccc(N2CCOCC2)cc1O | % | 91.4 |
| N#CC(C#N)=C(N)/C(C#N)=C/c1ccc(O)cc1 | % | 95.3 |
| O=C1Nc2ccc(Cl)cc2/C1=C/c1cc(Cl)c(O)c(Cl)c1 | % | 90.8 |

We now examine a further compound.
-- ask Given the compound CC#CC(=O)Nc1cc2c(Nc3ccc(F)c(Cl)c3)ncnc2cn1 , what is its reported residual activity?
-- reply 91.1
